- subject_of_test: Vascular endothelial growth factor receptor 2 (Homo sapiens, UniProt P35968)
- Sequence (P35968 whole entry): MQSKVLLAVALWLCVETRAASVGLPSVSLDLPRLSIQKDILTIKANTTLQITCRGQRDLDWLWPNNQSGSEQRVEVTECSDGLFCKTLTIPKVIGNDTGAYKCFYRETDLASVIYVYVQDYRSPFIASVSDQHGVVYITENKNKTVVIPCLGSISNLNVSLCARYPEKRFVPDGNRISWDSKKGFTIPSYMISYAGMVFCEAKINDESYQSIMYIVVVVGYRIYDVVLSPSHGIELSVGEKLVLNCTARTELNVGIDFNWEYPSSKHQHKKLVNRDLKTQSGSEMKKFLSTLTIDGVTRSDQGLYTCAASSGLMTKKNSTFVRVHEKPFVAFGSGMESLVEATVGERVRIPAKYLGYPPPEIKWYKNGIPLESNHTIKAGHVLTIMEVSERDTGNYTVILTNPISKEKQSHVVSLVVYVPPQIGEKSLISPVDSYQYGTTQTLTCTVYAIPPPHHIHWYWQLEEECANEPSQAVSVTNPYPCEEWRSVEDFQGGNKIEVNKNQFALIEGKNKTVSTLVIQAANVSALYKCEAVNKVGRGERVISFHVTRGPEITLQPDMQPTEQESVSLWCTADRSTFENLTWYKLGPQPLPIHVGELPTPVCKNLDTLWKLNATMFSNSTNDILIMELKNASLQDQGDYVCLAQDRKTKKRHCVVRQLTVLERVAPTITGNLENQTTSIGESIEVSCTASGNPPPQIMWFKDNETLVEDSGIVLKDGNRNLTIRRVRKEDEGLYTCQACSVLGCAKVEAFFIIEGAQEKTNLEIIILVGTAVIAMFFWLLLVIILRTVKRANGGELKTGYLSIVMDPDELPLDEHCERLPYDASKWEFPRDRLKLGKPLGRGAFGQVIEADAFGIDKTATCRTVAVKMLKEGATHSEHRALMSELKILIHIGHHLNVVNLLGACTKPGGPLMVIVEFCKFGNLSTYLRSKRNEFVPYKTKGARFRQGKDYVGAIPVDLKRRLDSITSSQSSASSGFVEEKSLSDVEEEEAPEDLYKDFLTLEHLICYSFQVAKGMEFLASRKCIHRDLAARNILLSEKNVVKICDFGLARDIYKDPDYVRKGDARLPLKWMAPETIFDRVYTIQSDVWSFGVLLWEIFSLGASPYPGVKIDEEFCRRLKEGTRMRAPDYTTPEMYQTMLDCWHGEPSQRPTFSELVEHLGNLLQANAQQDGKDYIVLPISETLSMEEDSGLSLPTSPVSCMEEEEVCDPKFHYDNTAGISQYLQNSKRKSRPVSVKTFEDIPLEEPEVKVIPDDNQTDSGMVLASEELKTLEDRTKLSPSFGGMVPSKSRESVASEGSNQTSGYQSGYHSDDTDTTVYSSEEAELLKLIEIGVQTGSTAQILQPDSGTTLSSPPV
pIC50: −log10 of the molar value.
outcome_measure: pIC50

INSERT INTO assay_data (smiles_str, relation_symbol, observed_measurement) VALUES
  ('CC(C)(C)C(=O)Nc1nc(Nc2ccc(F)c(Br)c2)c2cc(CCc3ccccn3)[nH]c2n1', '<', 3.70),
  ('C#Cc1cccc(Nc2nc(NC(=O)C(C)(C)C)nc3[nH]c(CCc4ccccn4)cc23)c1', '=', 3.90),
  ('Nc1nc(Nc2ccc(F)c(Br)c2)c2cc(CCc3ccccn3)[nH]c2n1', '=', 4.62),
  ('CC(C)(C)C(=O)Nc1nc(Nc2ccc(F)c(C(F)(F)F)c2)c2cc(CCc3ccccn3)[nH]c2n1', '=', 3.82),
  ('CC(C)(C)C(=O)Nc1nc(Nc2cccc(C(F)(F)F)c2)c2cc(CCc3ccccn3)[nH]c2n1', '=', 4.78),
  ('Nc1nc(Nc2cccc(Br)c2)c2cc(CCc3ccccn3)[nH]c2n1', '=', 4.30),
  ('CC(C)(C)C(=O)Nc1nc(Nc2ccc(F)c(Cl)c2)c2cc(CCc3ccccn3)[nH]c2n1', '=', 4.05),
  ('Nc1nc(Nc2ccc(F)c(Cl)c2)c2cc(CCc3ccccn3)[nH]c2n1', '<', 3.70),
  ('Nc1nc(Nc2ccc(F)c(C(F)(F)F)c2)c2cc(CCc3ccccn3)[nH]c2n1', '=', 3.90),
  ('Nc1nc(Nc2cccc(C(F)(F)F)c2)c2cc(CCc3ccccn3)[nH]c2n1', '=', 4.78),
  ('C#Cc1cccc(Nc2nc(N)nc3[nH]c(CCc4ccccn4)cc23)c1', '=', 4.36);
